Data credit: BigSolDB 2.1

- ASSAY_CONDITIONS: in water, 313.15 K
EXPERIMENTAL_ENDPOINT: solubility (mole fraction)

[a] Nc1nccnc1Cl
[b] Nc1ncc(Br)nc1Br
Task item: When the recorded solubility (mole fraction) values are compared, which is smaller: that of a or that of b ? Write down the label attached to your selection.
Reply: b
(b: 7.68e-06, a: 0.000123)

----------
- ASSAY_CONDITIONS: in isopropanol, 313.15 K
EXPERIMENTAL_ENDPOINT: solubility (mole fraction)

[a] Nc1nccnc1Cl
[b] Nc1ncc(Br)nc1Br
Task item: Just curious, which one has the larger solubility (mole fraction) reading, a or b ? Write down the label attached to your selection.
Reply: a
(a: 0.008, b: 0.00149)

----------
- ASSAY_CONDITIONS: in ethylene glycol, 318.15 K
EXPERIMENTAL_ENDPOINT: solubility (mole fraction)

[1] Nc1ncc(Br)nc1Br
[2] Nc1nccnc1Cl
Task item: Just curious, which one has the larger solubility (mole fraction) reading, 1 or 2 ? Write down the label attached to your selection.
Reply: 2

----------
- ASSAY_CONDITIONS: in methanol, 298.15 K
EXPERIMENTAL_ENDPOINT: solubility (mole fraction)
# respond with the number and nothing more

Task item: Check the records and state solubility (mole fraction) for `Nc1nccnc1Cl`
Reply: 0.00723

----------
- ASSAY_CONDITIONS: in ethylene glycol, 293.15 K
EXPERIMENTAL_ENDPOINT: solubility (mole fraction)

[P] Nc1ncc(Br)nc1Br
[Q] Nc1nccnc1Cl
Task item: When the recorded solubility (mole fraction) values are compared, which is smaller: that of P or that of Q ? Write down the label attached to your selection.
Reply: P
(P: 0.000219, Q: 0.00147)

----------
- ASSAY_CONDITIONS: in water, 323.15 K
EXPERIMENTAL_ENDPOINT: solubility (mole fraction)

[a] Nc1nccnc1Cl
[b] Nc1ncc(Br)nc1Br
Task item: When the recorded solubility (mole fraction) values are compared, which is smaller: that of a or that of b ? Write down the label attached to your selection.
Reply: b
(b: 9.63e-06, a: 0.000158)

----------
- ASSAY_CONDITIONS: in ethylene glycol, 278.15 K
EXPERIMENTAL_ENDPOINT: solubility (mole fraction)

[A] Nc1nccnc1Cl
[B] Nc1ncc(Br)nc1Br
Task item: When the recorded solubility (mole fraction) values are compared, which is smaller: that of A or that of B ? Write down the label attached to your selection.
Reply: B

----------
- ASSAY_CONDITIONS: in isopropanol, 318.15 K
EXPERIMENTAL_ENDPOINT: solubility (mole fraction)

[A] Nc1ncc(Br)nc1Br
[B] Nc1nccnc1Cl
Task item: Just curious, which one has the larger solubility (mole fraction) reading, A or B ? Write down the label attached to your selection.
Reply: B

----------
- ASSAY_CONDITIONS: in ethanol, 303.15 K
EXPERIMENTAL_ENDPOINT: solubility (mole fraction)
# respond with the number and nothing more

Task item: Check the records and state solubility (mole fraction) for `Nc1ncc(Br)nc1Br`
Reply: 0.0018

----------
- ASSAY_CONDITIONS: in DMF, 318.15 K
EXPERIMENTAL_ENDPOINT: solubility (mole fraction)
# respond with the number and nothing more

Task item: Check the records and state solubility (mole fraction) for `Nc1nccnc1Cl`
Reply: 0.0456

----------
- ASSAY_CONDITIONS: in ethanol, 313.15 K
EXPERIMENTAL_ENDPOINT: solubility (mole fraction)
# respond with the number and nothing more

Task item: Check the records and state solubility (mole fraction) for `Nc1ncc(Br)nc1Br`
Reply: 0.00231

----------
- ASSAY_CONDITIONS: in propylene glycol, 318.15 K
EXPERIMENTAL_ENDPOINT: solubility (mole fraction)
# respond with the number and nothing more

Task item: Check the records and state solubility (mole fraction) for `Nc1ncc(Br)nc1Br`
Reply: 0.000827

----------
- ASSAY_CONDITIONS: in ethylene glycol, 308.15 K
EXPERIMENTAL_ENDPOINT: solubility (mole fraction)

[P] Nc1ncc(Br)nc1Br
[Q] Nc1nccnc1Cl
Task item: Just curious, which one has the larger solubility (mole fraction) reading, P or Q ? Write down the label attached to your selection.
Reply: Q
(Q: 0.00257, P: 0.00033)

----------
- ASSAY_CONDITIONS: in ethylene glycol, 283.15 K
EXPERIMENTAL_ENDPOINT: solubility (mole fraction)

[I] Nc1ncc(Br)nc1Br
[II] Nc1nccnc1Cl
Task item: When the recorded solubility (mole fraction) values are compared, which is smaller: that of I or that of II ? Write down the label attached to your selection.
Reply: I

----------
- ASSAY_CONDITIONS: in methanol, 308.15 K
EXPERIMENTAL_ENDPOINT: solubility (mole fraction)
# respond with the number and nothing more

Task item: Check the records and state solubility (mole fraction) for `Nc1nccnc1Cl`
Reply: 0.01

----------
- ASSAY_CONDITIONS: in methanol, 318.15 K
EXPERIMENTAL_ENDPOINT: solubility (mole fraction)
# respond with the number and nothing more

Task item: Check the records and state solubility (mole fraction) for `Nc1nccnc1Cl`
Reply: 0.0133

----------
- ASSAY_CONDITIONS: in ethanol, 318.15 K
EXPERIMENTAL_ENDPOINT: solubility (mole fraction)
# respond with the number and nothing more

Task item: Check the records and state solubility (mole fraction) for `Nc1ncc(Br)nc1Br`
Reply: 0.00261

----------
- ASSAY_CONDITIONS: in propylene glycol, 323.15 K
EXPERIMENTAL_ENDPOINT: solubility (mole fraction)
# respond with the number and nothing more

Task item: Check the records and state solubility (mole fraction) for `Nc1ncc(Br)nc1Br`
Reply: 0.000928

----------
- ASSAY_CONDITIONS: in ethanol, 323.15 K
EXPERIMENTAL_ENDPOINT: solubility (mole fraction)
# respond with the number and nothing more

Task item: Check the records and state solubility (mole fraction) for `Nc1ncc(Br)nc1Br`
Reply: 0.00291

----------
- ASSAY_CONDITIONS: in ethylene glycol, 313.15 K
EXPERIMENTAL_ENDPOINT: solubility (mole fraction)

[P] Nc1ncc(Br)nc1Br
[Q] Nc1nccnc1Cl
Task item: Just curious, which one has the larger solubility (mole fraction) reading, P or Q ? Write down the label attached to your selection.
Reply: Q

----------
- ASSAY_CONDITIONS: in methanol, 278.15 K
EXPERIMENTAL_ENDPOINT: solubility (mole fraction)
# respond with the number and nothing more

Task item: Check the records and state solubility (mole fraction) for `Nc1nccnc1Cl`
Reply: 0.00283

----------
- ASSAY_CONDITIONS: in ethanol, 298.15 K
EXPERIMENTAL_ENDPOINT: solubility (mole fraction)
# respond with the number and nothing more

Task item: Check the records and state solubility (mole fraction) for `Nc1ncc(Br)nc1Br`
Reply: 0.00158

----------
- ASSAY_CONDITIONS: in ethanol, 283.15 K
EXPERIMENTAL_ENDPOINT: solubility (mole fraction)
# respond with the number and nothing more

Task item: Check the records and state solubility (mole fraction) for `Nc1ncc(Br)nc1Br`
Reply: 0.000938

----------
- ASSAY_CONDITIONS: in propylene glycol, 278.15 K
EXPERIMENTAL_ENDPOINT: solubility (mole fraction)
# respond with the number and nothing more

Task item: Check the records and state solubility (mole fraction) for `Nc1ncc(Br)nc1Br`
Reply: 0.000258
